Target: Melanocyte-stimulating hormone receptor (Homo sapiens)
Sequence (Q01726 whole entry): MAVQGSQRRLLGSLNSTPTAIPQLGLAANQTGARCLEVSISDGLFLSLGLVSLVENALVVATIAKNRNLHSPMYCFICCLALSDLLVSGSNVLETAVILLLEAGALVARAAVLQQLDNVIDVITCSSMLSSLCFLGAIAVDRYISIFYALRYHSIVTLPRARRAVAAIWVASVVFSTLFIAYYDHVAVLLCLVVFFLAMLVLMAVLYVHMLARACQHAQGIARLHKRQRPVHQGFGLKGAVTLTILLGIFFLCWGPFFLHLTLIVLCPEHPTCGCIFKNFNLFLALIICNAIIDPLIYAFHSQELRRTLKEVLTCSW
Reported IC50 values are given for each entry in this list.
Give a bare numeral; the unit nM is implied.

INSERT INTO measurements (compound, unitstext, experimentalvalue) VALUES
  ('CCCC[C@H](NC(C)=O)C(=O)N[C@H]1CC(=O)NCCCCC(C(N)=O)NC(=O)C([C@H](C)c2c[nH]c3ccccc23)NC(=O)[C@H](CCCN=C(N)N)NC(=O)C(Cc2ccccc2)NC(=O)[C@H](Cc2c[nH]cn2)NC1=O (single isomer, unassigned)', 'nM', 15);

Q: // map "CCCC[C@H](NC(C)=O)C(=O)N[C@@H](CC(=O)O)C(=O)N[C@@H](Cc1c[nH]cn1)C(=O)N[C@@H](Cc1ccccc1)C(=O)N[C@@H](CCCN=C(N)N)C(=O)N[C@@H](C(=O)N[C@@H](CCCCN)C(N)=O)[C@H](C)c1c[nH]c2ccccc12" to recorded IC50 (system: Melanocyte-stimulating hormone receptor (Homo sapiens))
Result: 2

Q: Follow-up item: CCCC[C@H](NC(C)=O)C(=O)N[C@H]1CC(=O)NCCCCC(C(N)=O)NC(=O)C([C@@H](C)c2c[nH]c3ccccc23)NC(=O)[C@H](CCCN=C(N)N)NC(=O)C(Cc2ccccc2)NC(=O)[C@H](Cc2c[nH]cn2)NC1=O (single isomer, unassigned)
Result: 0.5

Q: Same thing, different compound: CCCC[C@H](NC(C)=O)C(=O)N[C@H]1CC(=O)NCCCCC(C(N)=O)NC(=O)[C@@H]([C@@H](C)c2c[nH]c3ccccc23)NC(=O)[C@H](CCCN=C(N)N)NC(=O)C(Cc2ccccc2)NC(=O)[C@H](Cc2c[nH]cn2)NC1=O (single isomer, unassigned)
Result: 3

###

Recorded Relative dissociation rate, one value per entry.
Test: Relative rate determined by setting MTII equal to 1 and dividing the apparent k-1 by the MTII value
Type: ADME
Reply with just the number.

INSERT INTO assay_data (compound, recordedmetric, experimentalvalue) VALUES
  ('CCCC[C@H](NC(C)=O)C(=O)N[C@H]1CC(=O)NCCCCC(C(N)=O)NC(=O)[C@@H]([C@@H](C)c2c[nH]c3ccccc23)NC(=O)[C@H](CCCN=C(N)N)NC(=O)C(Cc2ccccc2)NC(=O)[C@H](Cc2c[nH]cn2)NC1=O (single isomer, unassigned)', 'Relative dissociation rate', 2.58),
  ('CCCC[C@H](NC(C)=O)C(=O)N[C@H]1CC(=O)NCCCCC(C(N)=O)NC(=O)C([C@H](C)c2c[nH]c3ccccc23)NC(=O)[C@H](CCCN=C(N)N)NC(=O)C(Cc2ccccc2)NC(=O)[C@H](Cc2c[nH]cn2)NC1=O (single isomer, unassigned)', 'Relative dissociation rate', 2.5),
  ('CCCC[C@H](NC(C)=O)C(=O)N[C@H]1CC(=O)NCCCCC(C(N)=O)NC(=O)C([C@@H](C)c2c[nH]c3ccccc23)NC(=O)[C@H](CCCN=C(N)N)NC(=O)C(Cc2ccccc2)NC(=O)[C@H](Cc2c[nH]cn2)NC1=O (single isomer, unassigned)', 'Relative dissociation rate', 0.75);

// moving on: another record for Relative dissociation rate
Q: Name the recorded Relative dissociation rate for "CCCC[C@H](NC(C)=O)C(=O)N[C@@H](CC(=O)O)C(=O)N[C@@H](Cc1c[nH]cn1)C(=O)N[C@@H](Cc1ccccc1)C(=O)N[C@@H](CCCN=C(N)N)C(=O)N[C@@H](C(=O)N[C@@H](CCCCN)C(N)=O)[C@H](C)c1c[nH]c2ccccc12" .
Result: 2.33
